Parameter: cytotoxic activity (ADCC) against AML5. Scope: all listed entries.
Target: T1, human CAPRIN-1 protein on the cell surfaces of human cancer cell lines and in human cancer tissues (human, UniProt Q14444 2-709); further: test concentration or dose not given here
T1 sequence (looked up): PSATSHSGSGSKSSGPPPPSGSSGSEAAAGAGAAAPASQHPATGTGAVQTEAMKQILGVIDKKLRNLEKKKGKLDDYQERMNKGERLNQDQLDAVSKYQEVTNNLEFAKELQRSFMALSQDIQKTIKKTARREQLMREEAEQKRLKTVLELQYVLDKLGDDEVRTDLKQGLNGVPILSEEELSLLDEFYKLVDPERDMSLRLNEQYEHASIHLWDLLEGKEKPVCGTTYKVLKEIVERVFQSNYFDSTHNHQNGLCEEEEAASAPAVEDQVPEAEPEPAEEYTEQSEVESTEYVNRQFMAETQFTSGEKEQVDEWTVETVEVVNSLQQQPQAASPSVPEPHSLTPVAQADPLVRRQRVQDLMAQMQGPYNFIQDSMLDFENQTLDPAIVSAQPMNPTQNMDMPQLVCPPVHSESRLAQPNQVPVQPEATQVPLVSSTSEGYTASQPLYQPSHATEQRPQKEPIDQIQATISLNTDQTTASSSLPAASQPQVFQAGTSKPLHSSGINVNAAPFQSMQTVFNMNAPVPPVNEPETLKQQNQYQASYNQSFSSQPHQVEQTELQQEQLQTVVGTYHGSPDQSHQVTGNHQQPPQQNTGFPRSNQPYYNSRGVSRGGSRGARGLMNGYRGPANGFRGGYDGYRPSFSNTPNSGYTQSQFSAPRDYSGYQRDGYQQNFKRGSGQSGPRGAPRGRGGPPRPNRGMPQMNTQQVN
Assay: cell-based or functional assay

anti-CAPRIN-1 mouse monoclonal antibody #5 (antibody, V domains shown, Mouse hybridoma antibody; detected with anti-mouse IgG) VH: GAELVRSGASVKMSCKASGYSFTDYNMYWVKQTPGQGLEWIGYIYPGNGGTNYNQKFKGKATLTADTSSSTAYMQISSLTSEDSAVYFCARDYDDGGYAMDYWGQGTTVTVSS VL: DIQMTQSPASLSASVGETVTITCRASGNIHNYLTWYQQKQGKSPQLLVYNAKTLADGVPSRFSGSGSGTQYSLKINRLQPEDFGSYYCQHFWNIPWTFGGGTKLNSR	≥ 10%
anti-CAPRIN-1 mouse monoclonal antibody #6 (antibody, V domains shown, Mouse hybridoma antibody; detected with anti-mouse IgG) VH: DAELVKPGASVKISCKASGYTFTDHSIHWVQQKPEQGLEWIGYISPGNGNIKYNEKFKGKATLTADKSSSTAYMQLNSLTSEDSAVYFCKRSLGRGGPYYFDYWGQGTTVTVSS VL: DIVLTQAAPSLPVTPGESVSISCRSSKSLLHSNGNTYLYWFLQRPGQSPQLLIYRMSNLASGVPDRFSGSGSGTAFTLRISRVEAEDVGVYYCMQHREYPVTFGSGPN	≥ 10%
human-chicken chimeric antibody #1 having the chicken monoclonal antibody #1 variable region (antibody, V domains shown, also called anti-CAPRIN-1 antibody #1; human-chicken chimeric monoclonal antibody (#1); not shown: human IgG1 H-chain constant region; human IgG1 L-chain constant region) VH: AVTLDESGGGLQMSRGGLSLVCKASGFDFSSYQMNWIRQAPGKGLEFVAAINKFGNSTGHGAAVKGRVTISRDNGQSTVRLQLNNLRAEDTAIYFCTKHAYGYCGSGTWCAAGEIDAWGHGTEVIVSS VL: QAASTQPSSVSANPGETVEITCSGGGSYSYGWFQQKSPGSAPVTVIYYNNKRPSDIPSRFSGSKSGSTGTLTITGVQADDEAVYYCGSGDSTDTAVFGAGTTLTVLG	13.1%

// moving on: another record for cytotoxic activity (ADCC) against AML5
Lab book: cytotoxic activity (ADCC) against AML5 of anti-CAPRIN-1 mouse monoclonal antibody #4 (antibody, V domains shown) VH: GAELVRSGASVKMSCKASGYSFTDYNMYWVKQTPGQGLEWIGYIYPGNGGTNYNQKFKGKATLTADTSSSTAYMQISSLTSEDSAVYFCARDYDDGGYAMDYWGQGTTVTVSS VL: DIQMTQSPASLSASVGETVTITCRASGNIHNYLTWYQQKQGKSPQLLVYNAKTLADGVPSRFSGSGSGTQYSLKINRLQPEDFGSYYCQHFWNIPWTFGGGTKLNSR noted as ≥ 10%
